target: human Gcg receptor (human), P47871; assay: radioligand competition SPA, displacement of I-125 Gcg, hGcg-R 293HEK membranes
Sequence (P47871 26-477): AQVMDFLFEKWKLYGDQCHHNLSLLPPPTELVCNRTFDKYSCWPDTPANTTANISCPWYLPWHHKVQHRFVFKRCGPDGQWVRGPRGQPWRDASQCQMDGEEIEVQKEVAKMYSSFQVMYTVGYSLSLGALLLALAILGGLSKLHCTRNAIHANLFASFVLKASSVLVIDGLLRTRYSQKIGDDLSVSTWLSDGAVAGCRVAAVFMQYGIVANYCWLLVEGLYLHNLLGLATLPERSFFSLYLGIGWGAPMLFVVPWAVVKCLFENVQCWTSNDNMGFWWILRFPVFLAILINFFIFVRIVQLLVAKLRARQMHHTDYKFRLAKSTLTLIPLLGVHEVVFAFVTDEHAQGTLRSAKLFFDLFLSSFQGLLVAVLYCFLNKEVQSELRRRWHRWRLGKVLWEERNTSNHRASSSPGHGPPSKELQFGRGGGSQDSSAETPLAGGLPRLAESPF
pKi: −log10 of the molar value. Starred links: 1 amine or outer side, 2 acyl side, 3 side chain; linkers in the order of their positions; H or OH if unused. Non-standard residues stand in square brackets, D forms with d. Groups on a side chain read outwards from the residue. *: point of attachment. C20 diacid = O=C(O)CCCCCCCCCCCCCCCCCCC(=O)*; γGlu = O=C(O)[C@H](CCC(=O)[*:2])N[*:1]; AEEA = NCCOCCOCC(=O)O; Aib = CC(C)(N)C(=O)O
property name: pKi

>>> numeric_result("H-H[Aib]QGTFTSDYSKYLDEKKAK([AEEA-AEEA-γGlu-C20 diacid])EFVEWLLEGGPSSG-NH2 [Compound 2]")
7.75
